For each record, write down the corresponding ORYSAT preemergence herbicidal rating.
Test system: ORYSAT (Rice, Tebonnet)
measurementNotes: Preemergence herbicidal evaluation
Type: in vivo, Oryza sativa, (L.) Tebonnet
measurementConditions: Rate 0.0620 kg/ha; preemergence; rated 4-5 weeks after treatment
Give bare numbers.

Solved entries (count: 6):
>>> print(df.to_string())
                             smilesnotation           targetorsystem  resultnumber
0  COc1ccsc1-c1nsc2ccc(-n3c(=O)cc(C(F)(F)F)n(C)c3=O)cc12  ORYSAT (Rice, Tebonnet)           1.0
1  CN(C(=O)c1nsc2ccc(-n3c(=O)cc(C(F)(F)F)n(C)c3=O)cc12)c1ccc(Cl)cc1  ORYSAT (Rice, Tebonnet)           0.0
2  Cc1ccsc1-c1nsc2ccc(-n3c(=O)cc(C(F)(F)F)n(C)c3=O)cc12  ORYSAT (Rice, Tebonnet)           1.4
3  Cc1ccn(-c2nsc3ccc(-n4c(=O)cc(C(F)(F)F)n(C)c4=O)cc23)n1  ORYSAT (Rice, Tebonnet)           4.0
4  Cn1ccnc1-c1nsc2ccc(-n3c(=O)cc(C(F)(F)F)n(C)c3=O)cc12  ORYSAT (Rice, Tebonnet)           3.0
5  Cc1cc(C)c(-c2nsc3ccc(-n4c(=O)cc(C(F)(F)F)n(C)c4=O)cc23)s1  ORYSAT (Rice, Tebonnet)           1.0

Next, consider the following molecule.
What value of ORYSAT preemergence herbicidal rating has been reported for the following molecule? `Cn1c(C(F)(F)F)cc(=O)n(-c2ccc3snc(C4SCCS4)c3c2)c1=O` 0.0

====

Test system: GLXMAW (Soybean, Williams)
measurementNotes: Preemergence herbicidal evaluation
Format: in vivo, Glycine max, (L.) Merr. cv Williams
measurementConditions: Rate 0.0620 kg/ha; preemergence; rated 4-5 weeks after treatment
For each record, write down the corresponding GLXMAW preemergence herbicidal rating.
Numbers only.

Solved entries (count: 4):
In [3]: df
Out[3]:
                                   compound                               property  resultnumber
0  CC(=O)N1CCSC1c1nsc2ccc(-n3c(=O)cc(C(F)(F)F)n(C)c3=O)cc12 (stereo not drawn)  GLXMAW preemergence herbicidal rating           6.5
1  Cc1cccnc1-c1nsc2ccc(-n3c(=O)cc(C(F)(F)F)n(C)c3=O)cc12  GLXMAW preemergence herbicidal rating           6.3
2  Cn1c(C(F)(F)F)cc(=O)n(-c2ccc3snc(C4SCCS4)c3c2)c1=O  GLXMAW preemergence herbicidal rating           2.0
3  Cn1c(C(F)(F)F)cc(=O)n(-c2ccc3snc(C4OCCS4)c3c2)c1=O (stereo not drawn)  GLXMAW preemergence herbicidal rating           8.5

# batch size: 5; output GLXMAW preemergence herbicidal rating per entry
1. CN(C(=O)c1nsc2ccc(-n3c(=O)cc(C(F)(F)F)n(C)c3=O)cc12)c1ccc(Cl)cc1
2. Cc1csc(-c2nsc3ccc(-n4c(=O)cc(C(F)(F)F)n(C)c4=O)cc23)n1
3. COc1ccsc1-c1nsc2ccc(-n3c(=O)cc(C(F)(F)F)n(C)c3=O)cc12
4. COC(=O)C(C)Oc1ccsc1-c1nsc2ccc(-n3c(=O)cc(C(F)(F)F)n(C)c3=O)cc12 (stereo not drawn)
5. Cc1cscc1-c1nsc2ccc(-n3c(=O)cc(C(F)(F)F)n(C)c3=O)cc12

1: 0.0; 2: 0.0; 3: 0.5; 4: 0.0; 5: 1.0

====

System: CYPIR (Cyperus iria)
measurementNotes: Flooded paddy, preemergence weed control
Format: in vivo
measurementConditions: rate 0.1250 kg/ha, rated 3-4 weeks after treatment, 0-9 rating scale
property: CYPIR herbicidal rating
One number for each entry.

Solved entries (count: 3):
>>> print(df.to_string())
                                   molecule  resultnumber
0  Cn1c(C(F)(F)F)cc(=O)n(-c2ccc3snc(C4OCC(CS(C)(=O)=O)O4)c3c2)c1=O (single isomer, unassigned) [Compound 86]           0.0
1  COC1(c2nsc3ccc(-n4c(=O)cc(C(F)(F)F)n(C)c4=O)cc23)N=C(N(C)C)NC1=O (stereo not shown)           9.0
2  Cn1c(C(F)(F)F)cc(=O)n(-c2ccc3snc(C4OCC(CS(C)(=O)=O)O4)c3c2)c1=O (single isomer, unassigned) [Compound 87]           5.0

Next, consider the following molecule.
Please state recorded CYPIR herbicidal rating (tested on CYPIR (Cyperus iria)) of `Cn1c(C(F)(F)F)cc(=O)n(-c2ccc3snc(-c4nc5ccccc5[nH]c4=O)c3c2)c1=O` 0.0

====

Tested on: CASOB (Cassia obtusifolia)
measurementNotes: Preemergence herbicidal evaluation
Type: in vivo, L.
measurementConditions: Rate 0.0620 kg/ha; rated 4-5 weeks after treatment
For each record, write down the corresponding Preemergence herbicidal rating CASOB.
One number for each entry.

>>> print(df.to_string())
                                   compound  resultnumber
0  Cn1c(C(F)(F)F)cc(=O)n(-c2cc3c(C4OCCCO4)nsc3cc2F)c1=O           9.0
1  C=CC1COC(c2nsc3ccc(-n4c(=O)cc(C(F)(F)F)n(C)c4=O)cc23)O1 (stereo not shown)           5.0
2  Cn1c(C(F)(F)F)cc(=O)n(-c2ccc3snc(C4OC(=O)C(C)(C)O4)c3c2)c1=O (stereo not shown)           3.5

Next, consider the following compound.
What value of Preemergence herbicidal rating CASOB has been reported for the following compound? Cn1c(C(F)(F)F)cc(=O)n(-c2ccc3snc(C4OCC(CCl)O4)c3c2)c1=O (stereo not shown) 3.0

====

Test system: ZEAMX (Corn, Field)
measurementNotes: Postemergence herbicidal evaluation
Format: in vivo, Zea mays, L.
measurementConditions: postemergence, rate 0.0320 kg/ha
property: ZEAMX herbicidal rating
Numbers only.

                                   compound                 property  resultnumber
0  C[C@@H]1C[C@H](C)OC(c2nsc3ccc(-n4c(=O)cc(C(F)(F)F)n(C)c4=O)cc23)O1 (stereo partly shown) [Compound 50]  ZEAMX herbicidal rating           4.0
1  Cn1c(C(F)(F)F)cc(=O)n(-c2ccc3snc(C4OCC(CS(C)(=O)=O)O4)c3c2)c1=O (single isomer, unassigned) [Compound 86]  ZEAMX herbicidal rating           4.0
2  CCCC1COC(c2nsc3ccc(-n4c(=O)cc(C(F)(F)F)n(C)c4=O)cc23)O1 (stereo not shown) [Compound 77]  ZEAMX herbicidal rating           3.0
3  Cn1c(C(F)(F)F)cc(=O)n(-c2ccc3snc(C4OCC5(CO4)CO5)c3c2)c1=O (stereo not shown) [Compound 70]  ZEAMX herbicidal rating           6.5
4  Cn1c(C(F)(F)F)cc(=O)n(-c2ccc3snc(C4(O)C(=O)NC(=N)C4(C)C)c3c2)c1=O (stereo not shown) [Compound 96]  ZEAMX herbicidal rating           3.0
5  Cc1sccc1-c1nsc2ccc(-n3c(=O)cc(C(F)(F)F)n(C)c3=O)cc12 [Compound 68]  ZEAMX herbicidal rating           5.5

Next, consider the following compound.
Please state recorded ZEAMX herbicidal rating (tested on ZEAMX (Corn, Field)) of C=C1COC(c2nsc3ccc(-n4c(=O)cc(C(F)(F)F)n(C)c4=O)cc23)OC1 [Compound 58] 5.5

====

Tested on: CASOB (Cassia obtusifolia)
measurementNotes: Postemergence herbicidal evaluation
Type: in vivo, L.
measurementConditions: postemergence, rate 0.0320 kg/ha
property: CASOB herbicidal rating
Answers are plain numbers.

Solved entries (count: 2):
>>> print(df.to_string())
                                   compound              targetorsystem                 property  resultnumber
0  CC1=CC(C)(C)OC(c2nsc3ccc(-n4c(=O)cc(C(F)(F)F)n(C)c4=O)cc23)C1 (stereo not shown)  CASOB (Cassia obtusifolia)  CASOB herbicidal rating           4.0
1  Cc1nn(-c2nsc3ccc(-n4c(=O)cc(C(F)(F)F)n(C)c4=O)cc23)c(C)c1C  CASOB (Cassia obtusifolia)  CASOB herbicidal rating           0.0

# batch size: 5; output CASOB herbicidal rating per entry
1. Cn1c(C(F)(F)F)cc(=O)n(-c2ccc3snc(C4(C)OCCO4)c3c2)c1=O
2. Cn1c(C(F)(F)F)cc(=O)n(-c2ccc3snc(C4OCC(CCl)O4)c3c2)c1=O (stereo not shown)
3. CC(C)C1COC(c2nsc3ccc(-n4c(=O)cc(C(F)(F)F)n(C)c4=O)cc23)=N1 (stereo not shown)
4. Cc1sccc1-c1nsc2ccc(-n3c(=O)cc(C(F)(F)F)n(C)c3=O)cc12
5. C=CC1COC(c2nsc3ccc(-n4c(=O)cc(C(F)(F)F)n(C)c4=O)cc23)O1 (stereo not shown)

2.0
5.0
2.0
5.0
4.0
